Where do these numbers come from? They come from ChEMBL document CHEMBL1125153.

species on record: Homo sapiens; test: Hallucinogenic activity i.e; ratio of effective dose of mescaline to the effective dose in human; type: functional
Label key: Condition met means Activity under 5 MU; Condition not met means Activity of 5 MU or more.

Here are 5 molecules together with their reported answers.
COc1ccc(OC)c(CC(C)N)c1 (stereo not drawn); Condition not met
COc1cc(CC(C)N)c(OC)c(OC)c1 (stereo not drawn); Condition met
CCCOc1c(OC)cc(CCN)cc1OC; Condition not met
COc1ccc2c(c1CC(C)N)OCO2 (stereo not drawn); Condition not met
CCOc1c(OC)cc(CCN)cc1SC; Condition not met

# check: Activity < 5 MU for COc1ccc(OC)c(OC)c1CC(C)N (stereo not drawn) Condition not met

# check: Activity < 5 MU for `CCOc1cc(CCN)cc(SC)c1OCC` Condition met

====

organism: Homo sapiens; test: Log value of hallucinogenic activity was determined; format: functional
MEASURED_METRIC: Log activity
Could you respond with only the numeric value?

COc1cc(SC)c(OC)cc1CC(C)N (centres undefined); 1.602

Using known records, supply Log activity for CCCOc1cc(OC)c(CC(C)N)cc1OC (centres undefined) 1.301

Using known records, supply Log activity for `COc1cc(CCN)cc(SC)c1OC` 0.778

Using known records, supply Log activity for `CCOc1cc(CCN)cc(OCC)c1OCC` -0.301

====

species on record: Homo sapiens; assay: Hallucinogenic activity i.e; ratio of effective dose of mescaline to the effective dose in human; format: functional
Readings of Activity for the listed molecules

Using known records, supply Activity for `CCOc1cc(CCN)cc(SCC)c1OC` <1 MU

Using known records, supply Activity for `CCOc1cc(CCN)cc(SC)c1OC` <1 MU

Using known records, supply Activity for `CCOc1cc(CCN)cc(OCC)c1SCC` <1 MU

====

species: Homo sapiens; test: Log value of hallucinogenic activity was determined; type: functional
MEASURED_METRIC: Log activity

Answered examples (6):
COc1cc(CC(C)N)c(OC)c2c1OCO2 (stereo not given); 1.079
COc1cc(CC(C)N)cc(C)c1OCc1ccccc1 (stereo not given); 0.301
CCCCCc1cc(OC)c(CC(C)N)cc1OC (stereo not given); 1
CCOc1cc(CCN)cc(SC)c1OCC; 0.301
CCOc1c(OC)cc(CCN)cc1SCC; 0.301
COc1ccc(CC(C)N)c(OC)c1 (stereo not given); 0.699

Using known records, supply Log activity for COc1cc(CC(C)N)c(OC)c(OC)c1 (stereo not given) 0.602

Using known records, supply Log activity for `CCOc1cc(CCN)cc(OCC)c1OC` -0.301

Using known records, supply Log activity for COc1ccc2c(c1CC(C)N)OCO2 (stereo not given) 1

Using known records, supply Log activity for `CCc1cc(OC)c(CCN)cc1OC` 1.255

Using known records, supply Log activity for `CCOc1cc(CCN)cc(SC)c1OC` -0.301

Using known records, supply Log activity for COc1c(CC(C)N)cc2c(c1OC)OCO2 (stereo not given) 0.699

Using known records, supply Log activity for `CCOc1cc(CCN)cc(OCC)c1SCC` -0.301

Using known records, supply Log activity for COc1cc2c(cc1CC(C)N)OCO2 (stereo not given) 1

Using known records, supply Log activity for `CCOc1cc(CCN)cc(OC)c1SC` 0.602

Using known records, supply Log activity for `COc1cc(OC)c(OC)cc1CCN` -0.301

Using known records, supply Log activity for COc1ccc(CC(C)N)cc1 (stereo not given) [PARA-METHOXYAMPHETAMINE] 0.699

Using known records, supply Log activity for COc1ccc(CC(C)N)cc1OC (stereo not given) -0.301

Using known records, supply Log activity for COc1c(CC(C)N)ccc2c1OCO2 (stereo not given) 1

Using known records, supply Log activity for `CCOc1cc(CCN)cc(SCC)c1OCC` -0.301

Using known records, supply Log activity for `CCOc1c(OC)cc(CCN)cc1OC` 0.845

Using known records, supply Log activity for COc1ccc(OC)c(OC)c1CC(C)N (stereo not given) 1

Using known records, supply Log activity for `CCOc1cc(CCN)cc(OCC)c1SC` -0.301

Using known records, supply Log activity for `COc1ccc(CCN)cc1` -0.301

Using known records, supply Log activity for `COc1cc(CCN)c(OC)cc1C` 1.301

====

Readings of Log activity for the listed molecules
species on record: Homo sapiens; assay: Log value of hallucinogenic activity was determined; type: functional
Could you respond with only the numeric value?

COc1cc(CC(C)N)cc(OC)c1OC (stereo not given); 0.301

// moving on: another record for Log activity
Using known records, supply Log activity for `CCCCSc1c(OC)cc(CCN)cc1OC` 0.477

====

organism: Homo sapiens; test: Log value of hallucinogenic activity was determined; type: functional
MEASURED_METRIC: Log activity
Could you respond with only the numeric value?

Answered examples (7):
CCc1cc(OC)c(CC(C)N)cc1OC (stereo not drawn); 2
CCSc1c(OC)cc(CCN)cc1OC; 1.301
CCCCc1cc(OC)c(CC(C)N)cc1OC (stereo not drawn); 1.602
COc1cc(CC(C)N)cc2c1OCO2 (stereo not drawn); 0.431
COc1ccc(CCN)cc1OC; -1
CCCOc1c(OC)cc(CCN)cc1OC; 0.778
CCOc1cc(CCN)cc(SCC)c1OC; -0.301

// moving on: another record for Log activity
Using known records, supply Log activity for `COc1cc(CCN)cc(OC)c1OC` 0
